# Lookup of reported GI50 keyed by entry
Test system: A-549
experiment.summary: Tata protocol cytotoxicity (SRB, 48 h), A-549
Assay type: cell-based, human
assay.setup: A-549, lung
Provide only the numeric value, understood in µM.

Problem: I am curious: what GI50 value has been reported for COc1cc2c(cc1OCCCCOc1ccc(-n3c(C)nc4ccccc4c3=O)cc1)N=C[C@@H]1CCCN1C2=O ?
Solution: 1.93

Problem: Same again, this time with COc1cc2c(cc1OCCCOc1ccc(-n3c(/C=C/c4ccccc4)nc4ccccc4c3=O)cc1)N=C[C@@H]1CCCN1C2=O
Solution: 1.88

Problem: Same again, this time with COc1cc2c(cc1OCCCCCOc1ccc(-n3c(/C=C/c4ccccc4)nc4ccccc4c3=O)cc1)N=C[C@@H]1CCCN1C2=O
Solution: 2.62

Alright, here's another molecule for you.
Problem: I am curious: what GI50 value has been reported for COc1cc2c(cc1OCCCCOc1ccc(-n3c(/C=C/c4ccccc4)nc4ccccc4c3=O)cc1)N=C[C@@H]1CCCN1C2=O ?
Solution: 2.39
